# System Tested: PI3Kδ (p110δ/p85α) (Homo sapiens, UniProt O00329)
# Sequence (O00329 whole entry): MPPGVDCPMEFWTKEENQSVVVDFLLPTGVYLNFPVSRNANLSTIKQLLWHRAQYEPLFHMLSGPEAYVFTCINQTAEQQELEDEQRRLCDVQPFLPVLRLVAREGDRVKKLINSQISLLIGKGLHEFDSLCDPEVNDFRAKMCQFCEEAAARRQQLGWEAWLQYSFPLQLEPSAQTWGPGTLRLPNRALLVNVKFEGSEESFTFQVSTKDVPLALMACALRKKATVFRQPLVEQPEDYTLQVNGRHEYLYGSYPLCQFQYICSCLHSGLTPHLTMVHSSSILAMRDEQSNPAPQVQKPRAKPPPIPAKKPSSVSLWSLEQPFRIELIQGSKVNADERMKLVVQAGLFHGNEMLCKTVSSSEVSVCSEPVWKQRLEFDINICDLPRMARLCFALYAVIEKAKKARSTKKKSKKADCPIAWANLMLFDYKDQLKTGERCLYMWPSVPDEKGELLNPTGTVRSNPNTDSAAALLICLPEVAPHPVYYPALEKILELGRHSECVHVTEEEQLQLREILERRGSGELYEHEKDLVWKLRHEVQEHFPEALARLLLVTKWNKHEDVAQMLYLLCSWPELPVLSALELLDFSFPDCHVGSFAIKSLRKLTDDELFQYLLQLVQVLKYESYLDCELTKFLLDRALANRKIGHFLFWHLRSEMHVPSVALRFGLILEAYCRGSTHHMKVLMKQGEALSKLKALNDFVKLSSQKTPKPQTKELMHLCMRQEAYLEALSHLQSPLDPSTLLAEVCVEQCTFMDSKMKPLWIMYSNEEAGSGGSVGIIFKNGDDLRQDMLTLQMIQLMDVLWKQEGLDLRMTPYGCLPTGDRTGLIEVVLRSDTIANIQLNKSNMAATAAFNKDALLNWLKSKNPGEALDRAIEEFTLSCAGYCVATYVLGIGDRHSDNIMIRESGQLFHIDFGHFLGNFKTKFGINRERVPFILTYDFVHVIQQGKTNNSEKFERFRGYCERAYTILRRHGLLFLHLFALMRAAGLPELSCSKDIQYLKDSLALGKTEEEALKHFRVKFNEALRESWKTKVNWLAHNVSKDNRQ
# Sequence (P27986 whole entry partner): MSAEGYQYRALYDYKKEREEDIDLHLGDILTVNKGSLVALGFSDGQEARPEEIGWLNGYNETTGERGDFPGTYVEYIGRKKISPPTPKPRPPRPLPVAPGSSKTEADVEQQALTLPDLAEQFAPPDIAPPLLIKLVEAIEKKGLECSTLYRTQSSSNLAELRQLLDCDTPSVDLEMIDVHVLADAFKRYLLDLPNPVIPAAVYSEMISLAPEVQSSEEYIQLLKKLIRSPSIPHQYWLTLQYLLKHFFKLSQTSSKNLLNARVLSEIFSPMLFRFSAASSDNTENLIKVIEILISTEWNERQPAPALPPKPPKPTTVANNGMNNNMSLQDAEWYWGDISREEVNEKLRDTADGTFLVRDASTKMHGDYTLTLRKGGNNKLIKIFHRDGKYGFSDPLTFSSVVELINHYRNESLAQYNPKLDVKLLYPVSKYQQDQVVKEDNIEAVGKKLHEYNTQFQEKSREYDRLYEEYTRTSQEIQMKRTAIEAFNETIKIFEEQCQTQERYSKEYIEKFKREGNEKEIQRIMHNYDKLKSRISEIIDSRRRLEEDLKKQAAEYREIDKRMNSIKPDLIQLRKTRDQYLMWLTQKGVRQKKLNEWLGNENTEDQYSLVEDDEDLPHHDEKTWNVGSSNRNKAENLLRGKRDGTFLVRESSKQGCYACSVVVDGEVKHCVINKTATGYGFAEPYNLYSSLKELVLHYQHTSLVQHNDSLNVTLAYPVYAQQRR
# Protocol Summary: PI3Kδ scintillation proximity assay (assay A)
# Experimental Context: 20 μM PIP2, 20 μM ATP, 4 nM PI3Kδ, 210 minutes, room temperature
Where a name gives a salt, the structure may show the parent alone.
Endpoint Label: IC50

Compound: CC(=O)N1CCN(c2c(C(C)Nc3ncnc4[nH]cnc34)cc(C#N)c3cncn23)CC1 (centres unmarked) [Example 31, bis(trifluoroacetate)]
System Tested: PI3Kδ (p110δ/p85α) (Homo sapiens, UniProt O00329)
Test Result: 200 to 750 nM

Compound: CC(Nc1ncnc2[nH]cnc12)c1cc(F)c2ccnn2c1-c1cccc(F)c1 (centres unmarked)
System Tested: PI3Kδ (p110δ/p85α) (Homo sapiens, UniProt O00329)
Test Result: < 50 nM

Compound: CC(Nc1ncnc2[nH]cnc12)c1cc(Cl)c2cncn2c1N1CC[C@H](O)C1 (some centres unmarked)
System Tested: PI3Kδ (p110δ/p85α) (Homo sapiens, UniProt O00329)
Test Result: < 50 nM

Compound: CC(Nc1ncnc2[nH]cnc12)c1cc(Cl)c2cncn2c1N1CCNCC1 (centres unmarked) [Example 9, dihydrochloride]
System Tested: PI3Kδ (p110δ/p85α) (Homo sapiens, UniProt O00329)
Test Result: < 50 nM

Compound: CCC(Nc1ncnc2[nH]cnc12)c1cc(Cl)c2cnc(C)n2c1-c1cc(F)cc(F)c1 (centres unmarked)
System Tested: PI3Kδ (p110δ/p85α) (Homo sapiens, UniProt O00329)
Test Result: < 50 nM

Compound: CO[C@H]1CCN(c2c(C(C)Nc3ncnc4[nH]cnc34)cc(Cl)c3cncn23)C1 (some centres unmarked)
System Tested: PI3Kδ (p110δ/p85α) (Homo sapiens, UniProt O00329)
Test Result: < 50 nM

Compound: COCCN1CCN(c2c(C(C)Nc3ncnc4[nH]cnc34)cc(Cl)c3cncn23)CC1 (centres unmarked)
System Tested: PI3Kδ (p110δ/p85α) (Homo sapiens, UniProt O00329)
Test Result: 200 to 750 nM

Compound: CC(Nc1ncnc2[nH]cnc12)c1cc(Cl)c2cncn2c1N1CCN(CCCC(F)(F)F)CC1 (centres unmarked)
System Tested: PI3Kδ (p110δ/p85α) (Homo sapiens, UniProt O00329)
Test Result: 50 to 200 nM

###

# System Tested: PI3Kδ (p110δ/p85α) (Homo sapiens)
# Protocol Summary: PI3Kδ scintillation proximity assay (assay A)
# Experimental Context: 20 μM PIP2, 20 μM ATP, 4 nM PI3Kδ, 210 minutes, room temperature

Molecule: CCC(Nc1ncnc2[nH]cnc12)c1cc(Cl)c2cncn2c1-c1cccc(F)c1 (stereo not drawn)
IC50: < 0.05 µM
--
Molecule: CC(Nc1ncnc2[nH]cnc12)c1cc(Cl)c2nccn2c1-c1cccc(F)c1 (stereo not drawn)
IC50: 0.2 to 0.75 µM
--
Molecule: CC(Nc1ncnc2[nH]cnc12)c1cc(Cl)c2cncn2c1-c1cccc(F)c1 (single isomer, unassigned) [1, isomer 1]
IC50: < 0.05 µM

###

# System Tested: PI3Kδ (p110δ/p85α) (Homo sapiens, UniProt O00329)
# Protocol Summary: PI3Kδ scintillation proximity assay (assay A)
# Experimental Context: 20 μM PIP2, 20 μM ATP, 4 nM PI3Kδ, 210 minutes, room temperature
pIC50: −log10 of the molar value.
Here the recorded pIC50 is given for each entry.

Molecule: CC(=O)N1CCN(c2c(C(C)Nc3ncnc4[nH]cnc34)cc(C)c3cncn23)CC1 (stereo not shown) [Example 32, bis(trifluoroacetate)]
pIC50: > 7.30
//
Molecule: CC(Nc1ncnc2[nH]cnc12)c1cc(Cl)c2cncn2c1-c1cccc(F)c1 (racemic) [Example 1]
pIC50: > 7.30
//
Molecule: Cc1ncc2c(Cl)cc(C(C)Nc3ncnc4[nH]cnc34)c(-c3cccc(F)c3)n12 (racemic)
pIC50: > 7.30
//
Molecule: COCC(=O)N1CCN(c2c(C(C)Nc3ncnc4[nH]cnc34)cc(Cl)c3cncn23)CC1 (stereo not shown)
pIC50: > 7.30
//
Molecule: CC(Nc1ncnc2[nH]cnc12)c1cc(Cl)c2cncn2c1-c1cccc(F)c1 (single isomer, unassigned) [1, isomer 2]
pIC50: 6.70 to 7.30
//
Molecule: CC(Nc1ncnc2[nH]cnc12)c1cc(Cl)c2cncn2c1N1CCN(C2CCC2)CC1 (stereo not shown)
pIC50: 6.70 to 7.30
//
Molecule: Cc1ncc2c(Cl)cc(C(C)Nc3ncnc4[nH]cnc34)c(-c3cc(F)cc(F)c3)n12 (stereo not shown)
pIC50: > 7.30

src = patent US9193721B2
